Measurement notes: Mouse brain uptake assay (MBUA), 3 mg/kg IV, 0-24 h, 4 time points
Type: in vivo, male CD1 mice
Conditions: mouse; fraction unbound to brain proteins; read-out: Fu (b) %
Readings of fraction unbound for the listed compounds
Number only, no unit.

-- ask Identify measured fraction unbound corresponding to COc1ccnc([C@@H]2CCC[C@H](c3nc4cccc(N5CCN(C)CC5)c4[nH]3)N2C)c1C
-- reply 0.019

-- ask Identify measured fraction unbound corresponding to Cc1cccnc1[C@@H]1CCC[C@H](c2nc3cccc(N4C5CCC4CN(C)C5)c3[nH]2)N1
-- reply 0.014

-- ask Identify measured fraction unbound corresponding to Cc1c(Cl)ccnc1[C@@H]1CCC[C@H](c2nc3cccc(N4CCN(C)CC4)c3[nH]2)N1C
-- reply 0.005

-- ask Identify measured fraction unbound corresponding to CN1[C@@H](c2nc3cccc(N4CCN5CCCC5C4)c3[nH]2)CCC[C@H]1c1ncccc1Cl (some centres unmarked)
-- reply 0.012

-- ask Identify measured fraction unbound corresponding to Cc1cccnc1[C@@H]1CCC[C@H](c2nc3cccc(N4CCN(C(C)C)CC4)c3[nH]2)N1
-- reply 0.011

---
-- ask Identify measured fraction unbound corresponding to Cc1cccnc1[C@@H]1CCC[C@H](c2nc3cccc(N4CC5CCC(C4)N5C)c3[nH]2)N1C
-- reply 0.013

-- ask Identify measured fraction unbound corresponding to Cc1cc(F)cnc1[C@@H]1CCC[C@H](c2nc3cccc(N4CCN(C)CC4)c3[nH]2)N1C
-- reply 0.016

-- ask Identify measured fraction unbound corresponding to CN1CCN(c2cccc3nc([C@H]4CCC[C@@H](c5ncccc5Cl)N4)[nH]c23)CC1 (racemic)
-- reply 0.035

====

Readings of Kp uu for the listed compounds
Measurement notes: Mouse brain uptake assay (MBUA), 3 mg/kg IV, 0-24 h, 4 time points
Format: in vivo, male CD1 mice
Conditions: male, CD1; unbound brain/unbound plasma, mouse, 3 mg/kg IV, 0-24 h
Number only, no unit.

-- ask Identify measured Kp uu corresponding to Cc1cccnc1[C@@H]1CCC[C@H](c2nc3cccc(N4CCN(C(C)C)CC4)c3[nH]2)N1
-- reply 0.2

-- ask Identify measured Kp uu corresponding to Cc1cc(F)cnc1[C@@H]1CCC[C@H](c2nc3cccc(N4CCN(C)CC4)c3[nH]2)N1C
-- reply 1.98

-- ask Identify measured Kp uu corresponding to Cc1cccnc1[C@@H]1CCC[C@H](c2nc3cccc(N4CC5CCC(C4)N5C)c3[nH]2)N1C
-- reply 0.35

Please find the next compound below.
-- ask Identify measured Kp uu corresponding to CN1[C@@H](c2nc3cccc(N4CCN5CCCC5C4)c3[nH]2)CCC[C@H]1c1ncccc1Cl (stereo partly shown)
-- reply 11.3

====

Readings of efflux ratio at 90 min, 10 μM for the listed compounds
Measurement notes: in vitro
Conditions: human, Caco-2, pH 7.4

-- ask Identify measured efflux ratio at 90 min, 10 μM corresponding to Cc1cccnc1[C@@H]1CCC[C@H](c2nc3ccccc3n2CCCCN2CCN(C)CC2)N1C
-- reply 0.1 to 10

-- ask Identify measured efflux ratio at 90 min, 10 μM corresponding to Cc1cccnc1[C@@H]1C[C@@H](O)C[C@H](c2nc3cccc(N4CCN(C)CC4)c3[nH]2)N1C
-- reply > 30

-- ask Identify measured efflux ratio at 90 min, 10 μM corresponding to Cc1cccnc1[C@@H]1CCC[C@H](c2nc3ccccc3n2CCCN2CCN(C)CC2)N1C
-- reply 0.1 to 10

---
-- ask Identify measured efflux ratio at 90 min, 10 μM corresponding to Cc1cccnc1[C@@H]1CCC[C@H](c2nc3ccccc3n2CCCNC2CCOCC2)N1C
-- reply 0.1 to 10

====

Tested target: UniProt:P61073
Sequence (P61073 whole entry): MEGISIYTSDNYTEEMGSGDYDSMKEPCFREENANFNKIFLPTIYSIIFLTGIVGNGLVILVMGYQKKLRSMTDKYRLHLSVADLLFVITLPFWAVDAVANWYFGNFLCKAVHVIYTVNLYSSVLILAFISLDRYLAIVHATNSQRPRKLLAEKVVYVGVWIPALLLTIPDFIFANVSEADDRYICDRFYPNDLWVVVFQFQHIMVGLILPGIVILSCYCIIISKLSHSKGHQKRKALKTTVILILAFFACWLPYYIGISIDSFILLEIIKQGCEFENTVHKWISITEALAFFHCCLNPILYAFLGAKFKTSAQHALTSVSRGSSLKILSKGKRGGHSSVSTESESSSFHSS
Measurement notes: Intracellular CXCL-12-induced calcium mobilization assay (FLIPR)
Conditions: U87.CXCR4 cells; CXCL-12 25-50 ng/mL; compound added 15 min before; read-out: IC50 CXCL-12 Ca^2+ flux U87.CXCR4+
pIC50: −log10 of the molar value.
Measured endpoint: pIC50

-- ask Identify measured pIC50 corresponding to Cc1cccnc1[C@@H]1CCC[C@H](c2nc3cccc(N4CCN(C)C5(CC5)C4)c3[nH]2)N1
-- reply 7.00 to 11.00

Please find the next molecule below.
-- ask Identify measured pIC50 corresponding to Cc1cccnc1[C@@H]1CCC[C@H](c2nc3cccc(N4CCN(C5CC5)CC4)c3[nH]2)N1C
-- reply 7.00 to 11.00

====

Measurement notes: Mouse brain uptake assay (MBUA), 3 mg/kg IV, 0-24 h, 4 time points
Assay type: in vivo, male CD1 mice
Conditions: male, CD1, mouse, brain/plasma, iv, 3 mg/kg
Readings of Kp for the listed compounds
Number only, no unit.

Worked cases, Kp given:
-- ask Identify measured Kp corresponding to Cc1cccnc1[C@@H]1CCC[C@H](c2nc3cccc(N4CCN(C5CC5)CC4)c3[nH]2)N1C [I-76]
-- reply 57.2

-- ask Identify measured Kp corresponding to Cc1cc(F)cnc1[C@@H]1CCC[C@H](c2nc3cccc(N4CCN(C)CC4)c3[nH]2)N1C [I-69]
-- reply 15

-- ask Identify measured Kp corresponding to Cc1cccnc1[C@@H]1CCC[C@H](c2nc3cccc(N4CCN5CCCC5C4)c3[nH]2)N1C (some centres unmarked) [I-66]
-- reply 44.5

-- ask Identify measured Kp corresponding to Cc1cccnc1[C@@H]1CCC[C@H](c2nc3cccc(N4CCN(C(C)C)CC4)c3[nH]2)N1 [I-128]
-- reply 2.5

Please find the next compound below.
-- ask Identify measured Kp corresponding to CN1CCN(c2cccc3nc([C@H]4CCC[C@@H](c5ncccc5Cl)N4)[nH]c23)CC1 (racemic) [I-122]
-- reply 4.17

====

Measurement notes: in vitro
Conditions: human, Caco-2, pH 7.4
Measured endpoint: Papp B→A at 90 min, 10 μM

-- ask Identify measured Papp B→A at 90 min, 10 μM corresponding to Cc1cccnc1[C@@H]1CCC[C@H](c2nc3ccccc3n2CCCN2CCC(F)(F)CC2)N1C
-- reply 0.1 to 10 ×10⁻⁶ cm/s

-- ask Identify measured Papp B→A at 90 min, 10 μM corresponding to Cc1cccnc1[C@@H]1CCC[C@H](c2nccn2CCCN(C)C)N1C
-- reply 10 to 30 ×10⁻⁶ cm/s

-- ask Identify measured Papp B→A at 90 min, 10 μM corresponding to Cc1cccnc1[C@@H]1CCC[C@H](c2nc3cccc(N4CCN(c5ccccn5)CC4)c3[nH]2)N1
-- reply 10 to 30 ×10⁻⁶ cm/s

Please find the next molecule below.
-- ask Identify measured Papp B→A at 90 min, 10 μM corresponding to CCN1CCC(Cn2c([C@H]3CCC[C@@H](c4ncccc4C)N3C)nc3ccccc32)CC1
-- reply 10 to 30 ×10⁻⁶ cm/s

====

Measurement notes: 7-day mouse toxicology study: toxicokinetics (plasma, brain, CSF), 30 mg/kg/day PO
Type: in vivo, male C57BL/6 mice
Conditions: male, C57BL/6, mouse, brain, po, 30 mg/kg, Day 7, Brain, 30 mg/kg PO
Protocol: The PO dosing solutions were prepared in 50 mM citrate buffer (pH 4.0) at 3 mg/mL. The blood collection was performed as follows: the animal was anesthetized under isoflurane. Approximately 500 μL blood/time point was collected into K2EDTA tube via cardiac puncture for terminal bleeding. ˜200 μL blood samples were put on ice and centrifuged to obtain plasma sample (2000 g, 5 min under 4° C.) within 15 minutes of collection. ˜300 blood samples were used for hematology assay. […]
Measured endpoint: Tmax
Note to self: number, then unit, no commentary.

-- ask Identify measured Tmax corresponding to Cc1cccnc1[C@@H]1CCC[C@H](c2nc3cccc(N4CCN(C)CC4)c3[nH]2)N1C (racemic) [I-3]
-- reply 1 h

====

Readings of Papp A→B at 90 min, 10 μM for the listed molecules
Measurement notes: in vitro
Conditions: human, Caco-2, pH 7.4

Worked cases, Papp A→B at 90 min, 10 μM given:
-- ask Identify measured Papp A→B at 90 min, 10 μM corresponding to Cc1cccnc1[C@H]1CCC[C@@H](c2nc3cccc(N4CCN(C)CC4)c3[nH]2)N1C (single isomer, unassigned)
-- reply 0.1 to 10 ×10⁻⁶ cm/s

-- ask Identify measured Papp A→B at 90 min, 10 μM corresponding to CN1CCN(c2cccc3nc([C@H]4CCC[C@@H](c5ncccc5Cl)N4)[nH]c23)CC12CC2
-- reply 10 to 30 ×10⁻⁶ cm/s

-- ask Identify measured Papp A→B at 90 min, 10 μM corresponding to Cc1cccnc1[C@@H]1CCC[C@H](c2nc3cccc(N4CC5CCC(C4)N5)c3[nH]2)N1C
-- reply 0.1 to 10 ×10⁻⁶ cm/s

-- ask Identify measured Papp A→B at 90 min, 10 μM corresponding to Cc1cccnc1[C@@H]1CCC[C@H](c2nc3cccc(N4CCN5CCCC5C4)c3[nH]2)N1 (stereo partly shown)
-- reply 0.1 to 10 ×10⁻⁶ cm/s

-- ask Identify measured Papp A→B at 90 min, 10 μM corresponding to Cc1cccnc1[C@@H]1CCC[C@H](c2nc3ccccc3n2CC2CCCNC2)N1C (stereo partly shown)
-- reply 0.1 to 10 ×10⁻⁶ cm/s

-- ask Identify measured Papp A→B at 90 min, 10 μM corresponding to CO[C@@H]1C[C@H](c2nc3cccc(N4CCN(C)CC4)c3[nH]2)N(C)[C@H](c2ncccc2C)C1
-- reply 0.1 to 10 ×10⁻⁶ cm/s

---
-- ask Identify measured Papp A→B at 90 min, 10 μM corresponding to Cc1cccnc1[C@@H]1CCC[C@H](c2nc3ccccc3n2CCCCN2CCN(C)CC2)N1C
-- reply 0.1 to 10 ×10⁻⁶ cm/s

-- ask Identify measured Papp A→B at 90 min, 10 μM corresponding to Cc1cccnc1[C@@H]1CCC[C@H](c2nc3ccccc3n2C2CCN(C)CC2)N1C
-- reply 10 to 30 ×10⁻⁶ cm/s

-- ask Identify measured Papp A→B at 90 min, 10 μM corresponding to CNCCCn1c([C@H]2CCC[C@@H](c3ncccc3C)N2C)nc2ccccc21
-- reply 0.1 to 10 ×10⁻⁶ cm/s

-- ask Identify measured Papp A→B at 90 min, 10 μM corresponding to CN1CCC(n2c([C@H]3CCC[C@@H](c4ncccc4Cl)N3C)nc3ccccc32)CC1
-- reply 10 to 30 ×10⁻⁶ cm/s

-- ask Identify measured Papp A→B at 90 min, 10 μM corresponding to CN(C)CCCn1ccnc1[C@H]1CCC[C@@H](c2ncccc2Cl)N1C
-- reply 0.1 to 10 ×10⁻⁶ cm/s

-- ask Identify measured Papp A→B at 90 min, 10 μM corresponding to Cc1cccnc1[C@@H]1CCC[C@H](c2nccn2C2CCN(C)CC2)N1C
-- reply 0.1 to 10 ×10⁻⁶ cm/s

-- ask Identify measured Papp A→B at 90 min, 10 μM corresponding to Cc1cccnc1[C@@H]1CCC[C@H](c2nc3ccccc3n2Cc2ccccc2-n2cccn2)N1
-- reply > 30 ×10⁻⁶ cm/s

-- ask Identify measured Papp A→B at 90 min, 10 μM corresponding to Cc1cccnc1[C@@H]1CCC[C@H](c2nc3cccc(N4CCN(C(C)C)CC4)c3[nH]2)N1
-- reply 0.1 to 10 ×10⁻⁶ cm/s

Reference source for all entries: patent US10988465B2
